Origin of measurements: patent US5580775A

biological target: rat brain L-proline transporter (Rattus norvegicus); test: cell-based; conditions: Ki values in excess of 100 μM (inhibition of proline uptake)
quantity_measured: Ki

sample_smiles=N[C@@H](Cc1ccc(O)cc1)C(=O)O quantity_measured=Ki reported="> 100 µM"

* * *

Target: rat brain L-proline transporter (Rattus norvegicus, UniProt P28573)
Sequence (P28573 1-637): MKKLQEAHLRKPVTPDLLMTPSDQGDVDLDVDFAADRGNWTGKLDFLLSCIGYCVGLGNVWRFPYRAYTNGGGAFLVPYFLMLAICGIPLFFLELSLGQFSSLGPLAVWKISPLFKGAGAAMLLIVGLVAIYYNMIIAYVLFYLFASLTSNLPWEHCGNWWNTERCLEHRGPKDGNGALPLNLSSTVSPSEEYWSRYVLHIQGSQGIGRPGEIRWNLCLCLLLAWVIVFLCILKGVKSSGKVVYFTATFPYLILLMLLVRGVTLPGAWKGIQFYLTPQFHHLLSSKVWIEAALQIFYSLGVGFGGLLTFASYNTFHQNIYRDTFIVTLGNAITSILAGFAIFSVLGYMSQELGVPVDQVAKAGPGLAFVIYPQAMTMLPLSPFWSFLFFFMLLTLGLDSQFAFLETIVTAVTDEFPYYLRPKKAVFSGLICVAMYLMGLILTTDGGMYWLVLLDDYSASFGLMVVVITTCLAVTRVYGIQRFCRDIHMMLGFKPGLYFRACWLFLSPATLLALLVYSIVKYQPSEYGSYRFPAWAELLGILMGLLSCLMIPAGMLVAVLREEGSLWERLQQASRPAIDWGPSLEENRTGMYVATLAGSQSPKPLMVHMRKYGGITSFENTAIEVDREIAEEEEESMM
Assay: cell-based
Details: Ki (inhibition of proline uptake)
# strict inequality: Ki < 40 µM yields TRUE, everything else yields FALSE

molecule="O=C(O)[C@@H]1CCCCN1 [L-Pipecolic acid]" assigned_category=TRUE
molecule="N[C@@H](Cc1ccccc1)C(=O)O [L-Phenylalanine]" assigned_category=FALSE
molecule="N[C@@H](CS)C(=O)O [L-Cysteine]" assigned_category=FALSE
molecule="CCCC[C@H](N)C(=O)O [L-Norleucine]" assigned_category=TRUE
molecule="N[C@@H](Cc1c[nH]cn1)C(=O)O [L-Histidine]" assigned_category=FALSE
molecule="O=C(O)C1C=CCN1 (stereo not drawn) [3,4-Dehydroproline]" assigned_category=TRUE
